target: recombinant human MAO-B (monoamine oxidase-B) (Homo sapiens, UniProt P27338); construct: purchased Sigma-Aldrich; test: Activity on recombinant human MAO-B, Amplex Red method, 1 mM benzylamine substrate; type: biochemical; conditions: 1 mM benzylamine substrate, read-out: Inhibitory Activity (IC50, nM) MAO-B
Sequence (P27338 whole entry): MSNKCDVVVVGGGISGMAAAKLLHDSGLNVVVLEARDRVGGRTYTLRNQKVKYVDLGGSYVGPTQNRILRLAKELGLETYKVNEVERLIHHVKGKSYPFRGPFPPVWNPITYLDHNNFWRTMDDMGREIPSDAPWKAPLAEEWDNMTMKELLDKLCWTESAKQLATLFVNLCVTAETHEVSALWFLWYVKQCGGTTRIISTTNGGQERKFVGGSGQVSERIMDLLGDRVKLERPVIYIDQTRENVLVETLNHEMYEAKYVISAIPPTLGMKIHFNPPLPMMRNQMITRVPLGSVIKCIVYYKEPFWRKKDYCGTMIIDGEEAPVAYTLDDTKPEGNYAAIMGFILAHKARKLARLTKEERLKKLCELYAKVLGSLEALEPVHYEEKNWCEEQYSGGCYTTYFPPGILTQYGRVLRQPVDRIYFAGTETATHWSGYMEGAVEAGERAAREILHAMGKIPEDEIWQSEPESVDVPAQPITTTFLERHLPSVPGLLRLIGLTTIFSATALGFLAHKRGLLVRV
Where a name gives a salt, the structure may show the parent alone.
parameter-measured: IC50 (nM)
Provide only the numeric value, understood in nM.

Solved entries:
Please list IC50 recorded for the compound NC/C(=C\F)Cn1ncn(-c2cccc(C#Cc3cccnc3)c2)c1=O [Example 243, hydrochloride] 940

Respond only with IC50 recorded for NC/C(=C\F)Cn1ncn(-c2cnc(-c3ccc(N4CCOCC4)nc3)cn2)c1=O [Example 221] 650

Name the recorded IC50 of the item Cc1cc(-n2cnn(C/C(=C/F)CN)c2=O)ncc1-c1ccc2sc(N)nc2c1 [Example 161, hydrochloride] in your answer. 3140

Please list IC50 recorded for the compound CC(C)c1nc(-c2ccc(-c3cccc(-n4cnn(C/C(=C/F)CN)c4=O)n3)cc2)no1 [Example 180] 180

Supply IC50 value. Item: CC(C)c1nc(-c2cccc(-c3cc(-n4cnn(C/C(=C/F)CN)c4=O)ccn3)c2)no1 [Example 206, hydrochloride] 110

Next:
Identify the reported IC50 for the following entry. NC/C(=C\F)Cn1ncn(-c2cccc(/C=C/c3ccc(C(F)(F)F)cc3)n2)c1=O [Example 238, Hydrochloride] 1600

# return recorded IC50 for input NC/C(=C\F)Cn1ncn(-c2cc(-c3ccc4nonc4c3)ccn2)c1=O [Example 172] 9070

Look up and state reported IC50 for NC/C(=C\F)Cn1ncn(-c2cnc(-c3ccc(-c4nc[nH]n4)cc3)cn2)c1=O [Example 218] 49

----------
target: recombinant human MAO-B (monoamine oxidase-B) (Homo sapiens); construct: purchased Sigma-Aldrich; experiment: Activity on recombinant human MAO-B, Amplex Red method, 1 mM benzylamine substrate; format: biochemical; conditions: 1 mM benzylamine substrate, read-out: Inhibitory Activity (IC50, nM) MAO-B
Counter-ions that a name gives are not always drawn.
# Lookup of reported IC50 keyed by entry

Recorded results for 5 molecules are shown here.
Identify measured IC50 associated with "CC(=O)Nc1nc2cc(-c3cnc(-n4cnn(C/C(=C/F)CN)c4=O)cn3)ccc2s1" 53 nM

Please report IC50 for the following molecule: "NC/C(=C\F)Cn1ncn(-c2ncc(-c3ccc(-c4nnc[nH]4)cc3)s2)c1=O" 164 nM

// fetch IC50 given entry NC/C(=C\F)Cn1ncn(-c2cccc(-c3cccc4[nH]c(=O)ccc34)n2)c1=O [Example 201, hydrochloride] > 10000 nM

Provide one value: measured IC50 of CN1C(=O)CCc2cc(-c3cccc(-n4cnn(C/C(=C/F)CN)c4=O)n3)ccc21 [Example 198, hydrochloride] > 10000 nM

Give me measured IC50, please, for this molecule: NC/C(=C\F)Cn1ncn(-c2cccc(-c3ccc(C(=O)N4CCOCC4)cc3)n2)c1=O [Example 186, hydrochloride] > 10000 nM

---
Could you please provide reported IC50 for "NC/C(=C\F)Cn1ncn(-c2cc(-c3ccc(N4CCOCC4)nc3)ccn2)c1=O" ? Thanks! > 10000 nM

Please give the documented IC50 of "NC/C(=C\F)Cn1ncn(-c2cccc(-c3ccc(N4CCOCC4)nc3)n2)c1=O" > 10000 nM

Quickly give me recorded IC50 for "NC/C(=C\F)Cn1ncn(-c2cc(-c3ccc4c(c3)OCCO4)ccn2)c1=O" 1540 nM

----------
Biological target: recombinant human VAP-1 (Homo sapiens, UniProt Q16853)
Construct: purchased R&D systems
Sequence (Q16853 whole entry): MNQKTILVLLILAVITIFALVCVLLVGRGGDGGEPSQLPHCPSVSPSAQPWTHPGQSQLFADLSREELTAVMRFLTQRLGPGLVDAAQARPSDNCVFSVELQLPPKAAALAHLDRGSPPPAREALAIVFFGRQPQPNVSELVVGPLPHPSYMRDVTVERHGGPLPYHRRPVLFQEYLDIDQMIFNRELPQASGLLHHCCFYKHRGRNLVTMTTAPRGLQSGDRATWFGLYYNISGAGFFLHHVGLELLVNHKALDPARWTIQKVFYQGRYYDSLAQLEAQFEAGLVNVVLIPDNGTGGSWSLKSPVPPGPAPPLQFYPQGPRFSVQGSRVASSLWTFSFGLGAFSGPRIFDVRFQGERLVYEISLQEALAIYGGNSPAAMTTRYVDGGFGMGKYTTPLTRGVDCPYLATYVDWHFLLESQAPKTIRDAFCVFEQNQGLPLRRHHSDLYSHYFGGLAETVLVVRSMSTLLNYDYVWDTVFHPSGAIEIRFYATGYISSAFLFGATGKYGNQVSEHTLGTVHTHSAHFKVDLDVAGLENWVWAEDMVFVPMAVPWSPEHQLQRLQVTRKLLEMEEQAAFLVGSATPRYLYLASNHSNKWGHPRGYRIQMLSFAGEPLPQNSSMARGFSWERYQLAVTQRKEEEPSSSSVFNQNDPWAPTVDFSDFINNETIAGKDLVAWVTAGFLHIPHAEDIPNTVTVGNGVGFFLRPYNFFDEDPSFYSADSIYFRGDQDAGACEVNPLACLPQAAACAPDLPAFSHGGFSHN
Test: Activity on recombinant human VAP-1, Amplex Red HRP-coupled hydrogen peroxide assay, benzylamine substrate
Format: biochemical
Conditions: recombinant human VAP-1, benzylamine substrate; read-out: Inhibitory Activity (IC50, nM) human VAP-1
Experimental: The compounds according to the present technology were evaluated in terms of activity on recombinant human VAP-1 (R&D systems) by measuring the level of hydrogen peroxide in horseradish peroxidase (HRP)-coupled reaction using Amplex Red Hydrogen Peroxide Assay Kit (Molecular Probes, Invitrogen, USA). […] The inhibitory effect of the compounds was measured as a decrease (%) in the signal rate as compared to the control group without any inhibitor (only diluted DMSO). […]
Where a name gives a salt, the structure may show the parent alone.
parameter-measured: IC50 (nM)
The reply should be a number in nM, with the unit left off.

Known IC50 results, listed for orientation:
Kindly indicate its recorded IC50. Item: NC/C(=C\F)Cn1ncn(-c2ccnc(-c3ccc(N4CCOCC4)cc3)c2)c1=O [Example 207, hydrochloride] 0.45

Return IC50 for the following molecule: NC/C(=C\F)Cn1ncn(-c2cccc(-c3ccc(C(=O)N4CCOCC4)cc3)n2)c1=O [Example 186, hydrochloride] 0.91

Please report IC50 for the following molecule: "CC(=O)Nc1ccc(-c2ccnc(-n3cnn(C/C(=C/F)CN)c3=O)c2)cc1" 0.23

In one line, give reported IC50 of the entry COc1ccc(-c2ccc(C)c(-n3cnn(C/C(=C/F)CN)c3=O)n2)cn1 [Example 212, hydrochloride] . 45

Read off the recorded IC50 for CN1CNc2cc(/C=C/c3cccc(-n4cnn(C/C(=C/F)CN)c4=O)n3)cnc21 [Example 240, hydrochloride] 1

For the molecule NC/C(=C\F)Cn1ncn(-c2cccc(-c3ccc(N4CCNCC4)cc3)n2)c1=O [Example 184, hydrochloride] , give its reported IC50. 1.4

New cases:
Please give the documented IC50 of Cc1cc(-c2ccc3c(c2)NC(=O)CO3)cnc1-n1cnn(C/C(=C/F)CN)c1=O [Example 155, hydrochloride] 0.3

----------
# maps each entry to its IC50
Target: recombinant human MAO-A (monoamine oxidase-A) (Homo sapiens, UniProt P21397)
Construct: purchased Sigma-Aldrich
Sequence (P21397 1-527): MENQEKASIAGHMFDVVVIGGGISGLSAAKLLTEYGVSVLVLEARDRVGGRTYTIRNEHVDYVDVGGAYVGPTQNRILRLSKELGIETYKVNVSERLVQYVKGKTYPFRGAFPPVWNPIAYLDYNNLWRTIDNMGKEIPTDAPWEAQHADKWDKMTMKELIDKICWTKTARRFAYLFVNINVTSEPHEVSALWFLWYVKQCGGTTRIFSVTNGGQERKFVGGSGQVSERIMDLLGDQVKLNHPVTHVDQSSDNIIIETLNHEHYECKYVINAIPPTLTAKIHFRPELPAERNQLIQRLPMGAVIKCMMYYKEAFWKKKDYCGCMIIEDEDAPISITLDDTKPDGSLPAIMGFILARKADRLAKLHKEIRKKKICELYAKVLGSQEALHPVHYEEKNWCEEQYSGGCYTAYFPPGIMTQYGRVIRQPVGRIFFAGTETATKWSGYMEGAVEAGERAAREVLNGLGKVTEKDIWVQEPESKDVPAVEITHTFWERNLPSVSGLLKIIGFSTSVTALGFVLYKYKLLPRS
Assay: Activity on recombinant human MAO-A, Amplex Red method, 0.5 mM tyramine substrate
Assay type: biochemical
Settings: 0.5 mM tyramine, read-out: Inhibitory Activity (IC50, nM) MAO-A
Where a name gives a salt, the structure may show the parent alone.

// known answers, use as guide
Return IC50 for the following molecule: NC/C(=C\F)Cn1ncn(-c2cccc(-c3ccc(C(F)(F)F)nc3)c2)c1=O [Example 84, hydrochloride] > 100000 nM

# return recorded IC50 for input NC/C(=C\F)Cn1ncn(-c2cccc(-c3cccnc3)c2)c1=O [Example 82, hydrochloride] > 100000 nM

Answer with reported IC50 of NC/C(=C\F)Cn1ncn(-c2cccc(-c3cc4ccccc4s3)c2)c1=O [Example 101, hydrochloride] 58000 nM

Look up and report measured IC50 for this entry: NC/C(=C/F)Cn1ncn(-c2ccc(Br)cn2)c1=O [Example 29, hydrochloride] 2600 nM

Entry CC(C)c1nc(-c2ccc(-c3cccc(-n4cnn(C/C(=C/F)CN)c4=O)c3)cc2)no1 [Example 64, hydrochloride] needs its IC50 filled in; supply it. 6030 nM

Continuing:
Return IC50 for the following molecule: NC/C(=C\F)Cn1ncn(-c2cccc(-c3cnc(O)c(C(F)(F)F)c3)c2)c1=O [Example 88, hydrochloride] > 100000 nM

Indicate its recorded IC50; the molecule in question is COc1cc(-n2cnn(C/C(=C/F)CN)c2=O)ccc1Br [Example 18, hydrochloride] > 100000 nM

Name the recorded IC50 of the item "NC/C(=C/F)Cn1ncn(-c2cccc(-c3ccc(-c4nnc[nH]4)cc3)c2)c1=O" in your answer. > 100000 nM

----------
Listing of entries alongside the reported IC50.
target: recombinant human MAO-B (monoamine oxidase-B) (Homo sapiens, UniProt P27338); construct: purchased Sigma-Aldrich; assay: Activity on recombinant human MAO-B, Amplex Red method, 1 mM benzylamine substrate; assay type: biochemical; settings: 1 mM benzylamine substrate, read-out: Inhibitory Activity (IC50, nM) MAO-B
Counter-ions that a name gives are not always drawn.
Please state the figure in nM; there is no need to write the unit.

For orientation, consider the following solved cases.
Name the recorded IC50 of the item Cc1ccc(-c2cc(C)c3c(c2)CCC(=O)N3)nc1-n1cnn(C/C(=C/F)CN)c1=O [Example 215, hydrochloride] in your answer. 3500

Given CN(C)c1ncc(-c2cccc(-n3cnn(C/C(=C/F)CN)c3=O)n2)cc1F [Example 191, hydrochloride] , respond with its IC50. 1200

New cases:
Supply recorded IC50 for Cn1nc(C(F)(F)F)cc1-c1cccc(-n2cnn(C/C(=C/F)CN)c2=O)n1 [Example 192, hydrochloride] here. 250

Look up and state reported IC50 for NC/C(=C\F)Cn1ncn(-c2cc(C#Cc3ccncc3)ccn2)c1=O [Example 246, hydrochloride] 130

Provide one value: measured IC50 of CN(C)c1ccc(/C=C/c2cccc(-n3cnn(C/C(=C/F)CN)c3=O)n2)cc1 [Example 239, hydrochloride] 230

Kindly indicate its recorded IC50. Item: CN(C)c1ccc(-c2cccc(-n3cnn(C/C(=C/F)CN)c3=O)n2)cn1 [Example 188, hydrochloride] 23000
